biological target: CCHFV viral ovarian tumor domain protease (vOTU, L protein); assay: CCHFV vOTU protease inhibitor potency, dose response, biochemical, fluorescence, Pep-AMC substrate (AID 743296); conditions: recombinant CCHFV vOTU
Active and inactive are the calls of the source. The rule behind the calls is not given here.
Answer with one of the outcomes given here: 1 (active), 0 (inactive)

Below, 5 compounds whose answers are already recorded.
In: GET /call?item= Cc1cnc(C2OCCO2)c2cccc(N)c12 returns the recorded outcome of this test.
Out: 0

In: GET /call?item= CCOC(=O)N=Nc1c2ccccc2c2nc3no[nH]c3nc12 returns the recorded outcome of this test.
Out: 1

In: GET /call?item= O=S(=O)(Nc1cc(Sc2ncn[nH]2)c(O)c2ccccc12)c1ccccc1 returns the recorded outcome of this test.
Out: 1

In: GET /call?item= CC1COCC(C)N1C1=C(Cl)C(=O)c2ccccc2C1=O (stereo unspecified) returns the recorded outcome of this test.
Out: 1

In: GET /call?item= CCOC(=O)c1c2c(n(Cc3ccccc3)c1C)C(=O)C(=O)c1ccccc1-2 returns the recorded outcome of this test.
Out: 1

Continuing:
In: GET /call?item= COC1=C(N)C(=O)c2nc(C)ccc2C1=O returns the recorded outcome of this test.
Out: 1

In: GET /call?item= O=C1OC(Nc2cc(Br)cc3cccnc23)c2ccccc21 (stereo unspecified) returns the recorded outcome of this test.
Out: 0

In: GET /call?item= COc1cc2c(cc1O)[C@@H]1Cc3ccc(OC)c(O)c3CN1CC2 returns the recorded outcome of this test.
Out: 0

In: GET /call?item= CCOC(=O)C1=C(COC(=O)c2ccc([N+](=O)[O-])s2)NC(=O)NC1C (stereo unspecified) returns the recorded outcome of this test.
Out: 1

In: GET /call?item= COC(CNC(=O)c1ccc2c3c(onc13)-c1ccccc1C2=O)OC returns the recorded outcome of this test.
Out: 1

In: GET /call?item= COc1cc(NC(=O)COC(=O)c2ccc([N+](=O)[O-])s2)cc(OC)c1OC returns the recorded outcome of this test.
Out: 1
